- System: Plasmodium falciparum
- method: GSK_TCMDC: Inhibition of Plasmodium falciparum Dd2 in whole red blood cells, using parasite LDH activity as an index of growth. Test compounds present at 2uM
- Type: functional
Returns one of YES or NO; YES when Inhibition is >= 70%.

[[record]]
compound = "COc1ccc2c(c1)[nH]c1c(C=Cc3ccccc3)nccc12.O=[N+]([O-])O"
label = "NO"

[[record]]
compound = "CCCCN(CCCC)CCCN(CCCN(CCCC)CCCC)c1cc(C)nc(Nc2ccc3cc(Br)ccc3c2)n1.Cl"
label = "YES"

[[record]]
compound = "CC1CCCCN1CCCNc1ncc2c(-c3ccc(NC(=O)Nc4cc(C(F)(F)F)ccc4F)c(F)c3)nn(C)c2n1.O=C(O)C(F)(F)F (stereo not drawn)"
label = "YES"

[[record]]
compound = "CCOC(=O)c1cnc2c(C(F)(F)F)cccc2c1Nc1ccc(O)cc1"
label = "NO"

[[record]]
compound = "Cc1cccc(CN2CCC(CNC(=O)c3cc4c(-c5ccccc5F)nn(C)c4s3)CC2)c1"
label = "NO"

[[record]]
compound = "CCOc1cc(C)ccc1N1CCN(CCCCNC(=O)c2ccc(NC(=O)c3ccc(Cl)cc3)cc2)CC1.Cl"
label = "NO"


----------
- System: Plasmodium falciparum
- method: GSK_TCMDC: Inhibition of Plasmodium falciparum 3D7 in whole red blood cells, using parasite LDH activity as an index of growth. Test compounds present at 2uM
- Format: functional
result type: Inhibition

[[record]]
molecule = "O=C(/C=C/c1cccc2c1OCO2)Nc1ccnc2ccncc12"
value = "90%"

[[record]]
molecule = "CC(=O)c1ccccc1OCCSc1nnc(Cc2cccs2)n1C1CCCCC1"
value = "87%"

[[record]]
molecule = "Cc1cc(=O)[nH]c2cc(Nc3ccnc(Nc4cccc(C(N)=O)c4)n3)ccc12.Cl"
value = "99%"

[[record]]
molecule = "COc1cccc(C2CCN(CCCCNC(=O)c3ccc(NC(=O)c4ccc(Cl)cc4)cc3)CC2)c1"
value = "99%"

[[record]]
molecule = "COCCCNC(=O)c1ccc(O)c(-c2cc(Cl)cc(Cl)c2)c1"
value = "94%"

[[record]]
molecule = "CC(C)c1cccc(OCC2CCN(c3ncc(C(=O)NC4CC4)cc3Cl)CC2)c1"
value = "94%"

[[record]]
molecule = "CN1CCC(NCc2ccc(-c3cccc(S(=O)(=O)NCc4ccccc4)c3)cc2)CC1.O=C(O)C(F)(F)F"
value = "100%"

[[record]]
molecule = "CCC1CCc2cc(N)cc(-c3nc4c(c(C)nn4CC)c(=O)[nH]3)c2O1 (centres undefined)"
value = "86%"

[[record]]
molecule = "CCNc1cc(C(=O)N[C@@H](Cc2ccccc2)[C@H](O)CNC2CC3CCC2C3)cc(N2CCCCS2(=O)=O)c1.Cl (some centres undefined)"
value = "99%"


----------
- System: HepG2
- method: GSK_TCMDC: Percent inhibition of human HepG2 cell line. Test compounds present at 10uM.
- Format: functional
Listing of recorded Inhibition by entry.
result type: Inhibition (%)

[[record]]
compound = "CCCCNC(=O)C1CCCN(C(=O)c2ccc(O)c(-c3ccc(Cl)c(Cl)c3)c2)C1 (stereo not drawn)"
value = 3

[[record]]
compound = "O=C(O)C(F)(F)F.c1ccc(CCNCc2cccc(-c3ccccc3CNCc3ccc4c(c3)OCO4)c2)nc1"
value = 41

[[record]]
compound = "CC1=C(C(=O)Nc2cc3cn[nH]c3cc2F)C(c2ccc(Cl)c(NS(C)(=O)=O)c2)CC(=O)N1 (stereo not drawn)"
value = 2

[[record]]
compound = "CCC(O)c1ccc(Br)cc1NC(=O)c1cccc(Cl)c1 (stereo not drawn)"
value = 0

[[record]]
compound = "Cc1cc(Br)cnc1CCCCNC1=NC(=O)CN1C"
value = 63

[[record]]
compound = "O=C(NCc1ccc(F)cc1)Nc1ccc(-c2ccc(-c3nc4ccccc4[nH]3)cc2)cc1"
value = 43

[[record]]
compound = "COc1ccc(NC(=O)Nc2ccc(-c3cccc(-c4nc5cccc(C)c5[nH]4)c3)cc2)cc1"
value = 33

[[record]]
compound = "Cc1cc(CN2CCCC(OC(c3ccc(F)cc3)c3ccc(F)cc3)C2)ccc1O (stereo not drawn)"
value = 28

[[record]]
compound = "CCC(CC)OC(=O)C(C)c1cccc(C(=O)c2ccccc2)c1 (stereo not drawn)"
value = 0

[[record]]
compound = "COc1ccc2c(c1)nc(CNC(=N)N)n2Cc1ccc(Cl)cc1.Cl"
value = 12

[[record]]
compound = "Cc1c(Cn2nc(Cl)c(N3CCNCC3)cc2=O)cccc1NC(=O)Nc1ccc(-c2ccccc2)cc1.O=C(O)C(F)(F)F"
value = 96

[[record]]
compound = "O=C(Nc1nccs1)c1sc2ccccc2c1O"
value = 0

[[record]]
compound = "COc1ccc2nccc([C@@H](O)CN3CCC(NCc4cc5oc(=O)n(C)c5cc4F)CC3)c2c1.O=C(O)C(=O)O"
value = 0

[[record]]
compound = "CN(C)Cc1c(O)ccc2[nH]c(-c3ccc(OC(F)(F)F)cc3)nc12"
value = 24

[[record]]
compound = "COc1ccccc1CNC(=O)c1cc(C2CC2)nc2c1cnn2C(C)C"
value = 47

[[record]]
compound = "Cc1cccc2nc(-c3cccc(-c4ccc(NC(=O)NCc5ccccc5)cc4)c3)[nH]c12"
value = 35

[[record]]
compound = "Nc1nccc(-c2ccc3c(-c4cccc(F)c4)cnc(N)c3c2)n1"
value = 41

[[record]]
compound = "Cc1ccc(Nc2nc(C)cc(NC3CCCC3)n2)cc1"
value = 33

[[record]]
compound = "O=C(O)C(F)(F)F.O=S(=O)(NCCN1CCCC1)c1cccc(-c2cccc(CNCCc3cccs3)c2)c1"
value = 30

[[record]]
compound = "COc1cccc(-c2cc3c(NCc4ccncc4)nccc3s2)c1"
value = 0

[[record]]
compound = "CC(C)c1cccc(OCC2CCN(c3ncc(C(=O)NC4CC4)cc3Cl)CC2)c1"
value = 9

[[record]]
compound = "CN(C)Cc1ccc(-c2ccc3c(Nc4ccc(Oc5ccccn5)cc4)ccnc3c2)o1"
value = 18

[[record]]
compound = "CCc1c(CCNC/C=C/C=C/CNCCc2ccc(OC)c(OC)c2CC)ccc(OC)c1OC.Cl"
value = 75

[[record]]
compound = "CCCCCc1cc(O)c2c(c1)OC(C)(C)C=C2C1=CCN(Cc2ccsc2)CC1"
value = 20

[[record]]
compound = "O=C(NC1CCN(Cc2ccccc2O)C1)c1cccc(C(F)(F)F)c1.O=C(O)C(F)(F)F (stereo not drawn)"
value = 0

[[record]]
compound = "Cl.N#Cc1ccc2c(c1)CCN(CCC1CCC(NC(=O)/C=C/c3cccc4ccccc34)CC1)CC2 (stereo not drawn)"
value = 16

[[record]]
compound = "CCCN1CCN(CC(O)CNC(=O)Nc2ccc(Br)cc2)CC1.O=C(O)C(F)(F)F (stereo not drawn)"
value = 10

[[record]]
compound = "CN1CCN(CCCN(Cc2cccc(-c3cccc(CNC4CCCC4)c3)c2)C(=O)/C=C/c2ccccc2)CC1.O=C(O)C(F)(F)F"
value = 84

[[record]]
compound = "O=C(Nc1ccc(C(F)(F)F)cc1)c1cc(Br)cnc1NCCCn1ccnc1"
value = 32

[[record]]
compound = "COc1ccc(-c2cccc(NC(=O)c3ccc(C#N)cc3)c2)cc1CN1CCCC1.O=C(O)C(F)(F)F"
value = 30

[[record]]
compound = "C=CCC(C(=O)Nc1ccnc2ccc(OC)cc12)C1CCN(CCCCCCC)CC1 (stereo not drawn)"
value = 20

[[record]]
compound = "CC(NC(=O)c1ccc(O)c(-c2ccc(Cl)c(Cl)c2)c1)C(=O)NC1CCCCC1 (stereo not drawn)"
value = 0

[[record]]
compound = "C[C@H]1CN(Cc2ccc(-c3cccc(CNC(=O)c4cccc(C(=O)c5ccc(Cl)c(Cl)c5)c4)c3)s2)CCN1.O=C(O)C(F)(F)F"
value = 3

[[record]]
compound = "O=C(O)C(F)(F)F.Oc1ccc(CN2CCC(NCc3cccc(C(F)(F)F)c3)CC2)cc1"
value = 10

[[record]]
compound = "CN1CCC[C@H]1COc1ccc(CN2CC[C@H](NC(=O)c3ccc(Cl)c(Cl)c3)C2)cc1Cl.O=C(O)C(F)(F)F"
value = 53

[[record]]
compound = "Fc1cccc(Cl)c1-c1nc(NCCC(c2ccccc2)c2ccccc2)no1"
value = 4

[[record]]
compound = "Br.CC1(C)NC(N)=NC(=N)N1OCCCNC(=O)c1ccc([N+](=O)[O-])cc1"
value = 57

[[record]]
compound = "Cc1cc(=O)[nH]c(-n2nc(C)cc2NC(=O)C2(c3ccc(Cl)cc3)CCCC2)n1"
value = 30

